Tested on: Enterococcus faecium
PROTOCOL: Antibacterial activity against Enterococcus faecium 7130724 by CLSI M07-A8 method
Type: functional
Measured MIC values are reported for all entries that follow.
Your answer is read as µg/mL, so omit the unit and give the number.

Known results for molecules:
Given "CNC(=O)C[C@@H]1NC(=O)c2csc(n2)-c2ccc(-c3nc(C4=N[C@H](C(=O)N5CCC[C@H]5C(N)=O)CO4)cs3)nc2-c2csc(n2)-c2csc(n2)[C@H]([C@@H](O)c2ccccc2)NC(=O)CNC(=O)c2nc(sc2COC)[C@H](C(C)C)NC(=O)c2nc1sc2C" , respond with its MIC.
0.25

Given "CNC(=O)C[C@@H]1NC(=O)c2csc(n2)-c2ccc(-c3nc(NC(=O)O[C@H]4CC[C@H](C(=O)O)CC4)cs3)nc2-c2csc(n2)-c2csc(n2)[C@H]([C@@H](O)c2ccccc2)NC(=O)CNC(=O)c2nc(sc2COC)[C@H](C(C)C)NC(=O)c2nc1sc2C" , respond with its MIC.
0.03

Given "CNC(=O)C[C@@H]1NC(=O)c2csc(n2)-c2ccc(-c3nc(NC(=O)[C@H](C)CCC(=O)O)cs3)nc2-c2csc(n2)-c2csc(n2)[C@H]([C@@H](O)c2ccccc2)NC(=O)CNC(=O)c2nc(sc2COC)[C@H](C(C)C)NC(=O)c2nc1sc2C" , respond with its MIC.
0.5

Given "CNC(=O)C[C@@H]1NC(=O)c2csc(n2)-c2ccc(-c3nc(NC(=O)CCC(=O)O)cs3)nc2-c2csc(n2)-c2csc(n2)[C@H]([C@@H](O)c2ccccc2)NC(=O)CNC(=O)c2nc(sc2COC)[C@H](C(C)C)NC(=O)c2nc1sc2C" , respond with its MIC.
0.5

Given "CNC(=O)C[C@@H]1NC(=O)c2csc(n2)-c2ccc(-c3nc(NS(N)(=O)=O)cs3)nc2-c2csc(n2)-c2csc(n2)[C@H]([C@@H](O)c2ccccc2)NC(=O)CNC(=O)c2nc(sc2COC)[C@H](C(C)C)NC(=O)c2nc1sc2C" , respond with its MIC.
4

Now take the following molecule into account.
Given "CNC(=O)C[C@@H]1NC(=O)c2csc(n2)-c2ccc(-c3nc(NC(=O)OCCN4CCOCC4)cs3)nc2-c2csc(n2)-c2csc(n2)[C@H]([C@@H](O)c2ccccc2)NC(=O)CNC(=O)c2nc(sc2COC)[C@H](C(C)C)NC(=O)c2nc1sc2C" , respond with its MIC.
0.5

* * *

Tested on: Staphylococcus aureus
PROTOCOL: Antibacterial activity against methicillin-resistant Staphylococcus aureus isolate A4.018 by CLSI M07-A8 method
Assay type: functional
Measured log10 of MIC values are reported for all entries that follow.
Field: value | Transform: log10 | Quantity: MIC | Unit: µg/mL

Specify the recorded log10 of MIC for "CNC(=O)C[C@@H]1NC(=O)c2csc(n2)-c2ccc(-c3nc(NC(=O)O[C@H]4C[C@@H](C(=O)O)C4)cs3)nc2-c2csc(n2)-c2csc(n2)[C@H]([C@@H](O)c2ccccc2)NC(=O)CNC(=O)c2nc(sc2COC)[C@H](C(C)C)NC(=O)c2nc1sc2C" , system: Staphylococcus aureus.
-1.22

Specify the recorded log10 of MIC for "CNC(=O)C[C@@H]1NC(=O)c2csc(n2)-c2ccc(-c3nc(NS(N)(=O)=O)cs3)nc2-c2csc(n2)-c2csc(n2)[C@H]([C@@H](O)c2ccccc2)NC(=O)CNC(=O)c2nc(sc2COC)[C@H](C(C)C)NC(=O)c2nc1sc2C" , system: Staphylococcus aureus.
0.60

Specify the recorded log10 of MIC for "CNC(=O)C[C@@H]1NC(=O)c2csc(n2)-c2ccc(-c3nc(NC(=O)[C@H]4CC[C@@H](C(=O)O)CC4)cs3)nc2-c2csc(n2)-c2csc(n2)[C@H]([C@@H](O)c2ccccc2)NC(=O)CNC(=O)c2nc(sc2COC)[C@H](C(C)C)NC(=O)c2nc1sc2C" , system: Staphylococcus aureus.
-0.60

Specify the recorded log10 of MIC for "CNC(=O)C[C@@H]1NC(=O)c2csc(n2)-c2ccc(-c3nc(NC(=O)[C@H]4CC[C@@H](C(=O)O)C4)cs3)nc2-c2csc(n2)-c2csc(n2)[C@H]([C@@H](O)c2ccccc2)NC(=O)CNC(=O)c2nc(sc2COC)[C@H](C(C)C)NC(=O)c2nc1sc2C" , system: Staphylococcus aureus.
-0.60

Specify the recorded log10 of MIC for "CNC(=O)C[C@@H]1NC(=O)c2csc(n2)-c2ccc(-c3nc(NC(=O)c4ccnc(C(=O)O)c4)cs3)nc2-c2csc(n2)-c2csc(n2)[C@H]([C@@H](O)c2ccccc2)NC(=O)CNC(=O)c2nc(sc2COC)[C@H](C(C)C)NC(=O)c2nc1sc2C" , system: Staphylococcus aureus.
0.90

Specify the recorded log10 of MIC for "CNC(=O)C[C@@H]1NC(=O)c2csc(n2)-c2ccc(-c3nc(NC(=O)C45CCC(C(=O)O)(CC4)CC5)cs3)nc2-c2csc(n2)-c2csc(n2)[C@H]([C@@H](O)c2ccccc2)NC(=O)CNC(=O)c2nc(sc2COC)[C@H](C(C)C)NC(=O)c2nc1sc2C" , system: Staphylococcus aureus.
-0.60

Specify the recorded log10 of MIC for "CNC(=O)C[C@@H]1NC(=O)c2csc(n2)-c2ccc(-c3nc(NC(=O)c4ccc(C(=O)O)cc4)cs3)nc2-c2csc(n2)-c2csc(n2)[C@H]([C@@H](O)c2ccccc2)NC(=O)CNC(=O)c2nc(sc2COC)[C@H](C(C)C)NC(=O)c2nc1sc2C" , system: Staphylococcus aureus.
-0.90

Specify the recorded log10 of MIC for "CNC(=O)C[C@@H]1NC(=O)c2csc(n2)-c2ccc(-c3nc(NC(=O)CC(=O)O)cs3)nc2-c2csc(n2)-c2csc(n2)[C@H]([C@@H](O)c2ccccc2)NC(=O)CNC(=O)c2nc(sc2COC)[C@H](C(C)C)NC(=O)c2nc1sc2C" , system: Staphylococcus aureus.
0.00

Continuing:
Specify the recorded log10 of MIC for "CNC(=O)C[C@@H]1NC(=O)c2csc(n2)-c2ccc(-c3nc(NC(=O)C(C)(C)CCCC(C)(C)C(=O)O)cs3)nc2-c2csc(n2)-c2csc(n2)[C@H]([C@@H](O)c2ccccc2)NC(=O)CNC(=O)c2nc(sc2COC)[C@H](C(C)C)NC(=O)c2nc1sc2C" , system: Staphylococcus aureus.
0.60

Specify the recorded log10 of MIC for "CNC(=O)C[C@@H]1NC(=O)c2csc(n2)-c2ccc(-c3nc(NC(=O)[C@H]4CC[C@@H]4C(=O)O)cs3)nc2-c2csc(n2)-c2csc(n2)[C@H]([C@@H](O)c2ccccc2)NC(=O)CNC(=O)c2nc(sc2COC)[C@H](C(C)C)NC(=O)c2nc1sc2C" , system: Staphylococcus aureus.
-0.60

All figures here come from ChEMBL document CHEMBL1921735.
